The following variants are listed with their measured protein stability index values.
B1: DFFB (parent)
chain: KLNCDPSRIYKPQTRLKRKQPVRK

Variants of: B1
test.summary: protein stability index of a GFP-peptide fusion (GPS, HEK-293T) (PSI 1-6); higher = more stable;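 further: lentivirally expressed fusions sorted by FACS into six bins by GFP to DsRed ratio, PSI derived from sequencing read proportions per bin multiplied by bin number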
run.parameters: c terminus: a fixed tail appended

# mutant.code, protein stability index
data = [
    ("C4S", 3.66),
    ("P21V", 3.31),
    ("Y10V", 2.94),
    ("V22P", 3.87),
    ("Y10T", 3.35),
    ("K1I", 2.06),
    ("R18V", 3.89),
    ("K17Q", 2.9),
    ("P21D", 2.71),
    ("Q20R", 3.59),
    ("P21W", 3.45),
    ("R23L", 2.81),
    ("R15W", 3.02),
    ("R8H", 3.61),
    ("P12G", 3.3),
    ("K24D", 3.56),
    ("K19A", 3.66),
    ("Y10H", 3.86),
    ("R18K", 3.76),
    ("Y10F", 2.58),
    ("Y10C", 3.62),
    ("Q13I", 3.24),
    ("Q20E", 3.04),
    ("C4A", 3.75),
    ("R23G", 3.35),
    ("K11A", 4.01),
    ("N3C", 3.73),
    ("P21T", 3.86),
    ("S7G", 3.5),
    ("P6V", 2.89),
    ("K19H", 3.49),
    ("K1Y", 3.24),
    ("R15K", 3.24),
    ("S7Q", 3.87),
    ("Q20D", 3.35),
    ("P6T", 3.56),
    ("N3H", 3.75),
    ("L16I", 3.67),
    ("V22Y", 2.22),
    ("I9V", 3.52),
    ("P21F", 3.37),
    ("N3A", 4.21),
    ("Q20K", 3.7),
    ("S7K", 3.21),
    ("L16E", 4.44),
    ("N3M", 3.19),
    ("N3G", 4.4),
    ("R8P", 3.58),
    ("R18C", 3.43),
    ("T14Q", 3.31),
    ("Y10W", 3.47),
    ("L16Q", 3.9),
    ("R15G", 3.58),
    ("Y10I", 3.6),
    ("Q20V", 3.54),
    ("I9Y", 3.32),
    ("Q20H", 3.12),
    ("L16H", 3.9),
    ("P21M", 3.76),
    ("P6A", 3.45),
    ("Q20W", 3.24),
    ("S7R", 2.98),
    ("Y10N", 3.57),
    ("R18N", 3.23),
    ("R15A", 2.82),
    ("K17E", 3.42),
    ("Q13M", 3.51),
    ("C4V", 4.06),
    ("V22M", 3.42),
    ("D5N", 3.96),
    ("K24H", 3.15),
    ("K19Q", 3.34),
    ("I9Q", 3.9),
    ("K24I", 3.03),
    ("L16V", 3.88),
    ("L2F", 3.96),
    ("S7D", 3.36),
    ("R15D", 3.09),
    ("S7N", 3.55),
    ("R8Y", 2.77),
    ("R15N", 3.26),
    ("K1F", 2.63),
    ("T14K", 3.54),
    ("R15Q", 2.67),
    ("N3E", 4.44),
    ("R15M", 3.21),
    ("K24L", 2.87),
    ("C4N", 3.74),
    ("Q13T", 3.66),
    ("C4P", 4.03),
    ("P21H", 3.41),
]
